- Tested on: YNL142W
- assay notes: GFP reporter expression in TORC1-bypass yeast, mechanism study for yeast TOR pathway modulator project, S. cerevisiae, TORC1 bypass vs wild-type strains (AID 504479)
- condition notes: fluorescence ratio vs DMSO, MEP2-GFP in TORC1 bypass strain, at 10 µM, stronger effect = higher value
measurement type: GFP ratio vs DMSO
Reply with the value as a number alone.

Below are worked cases with known answers.
compound | tested target | measurement type | meas value
O=C1ON=C(c2ccccc2)/C1=C/c1ccco1 | YNL142W | GFP ratio vs DMSO | 1.01
N/C(Cc1ccc(Cl)cc1)=N\OC(=O)c1cccc2ccccc12 | YNL142W | GFP ratio vs DMSO | 1.05
Cc1ccc(C(c2cc(Cl)c3cccnc3c2O)N2CCN(C)CC2)cc1 (stereo unspecified) | YNL142W | GFP ratio vs DMSO | 1.03
CC(=O)c1ccc(N2CCN(C(=O)c3ccc(Br)cc3)CC2)c(F)c1 | YNL142W | GFP ratio vs DMSO | 1.25
O=[N+]([O-])c1ccc(S(=O)(=O)c2cccc(C(F)(F)F)c2)nc1 | YNL142W | GFP ratio vs DMSO | 1.04

## Input Reported GFP ratio vs DMSO for CC(C)(C)C(=O)NC(=S)NNC(=O)c1ccc(-c2ccccc2)cc1 : what is it?
## Output 1.27

## Input // query: O=C(OCC(=O)N1CCN(C(=O)c2ccco2)CC1)c1cc(-c2cccc(Br)c2)nc2ccccc12
## Output 1.01

## Input // query: O=[N+]([O-])c1cc(O)c2ncccc2c1
## Output 0.918

## Input // query: O=C1ON=C(c2ccccc2)/C1=C\c1ccco1
## Output 0.993

## Input // query: CCc1ccc(OCC(=O)NNC(=S)NC(=O)C2CC2)c(Br)c1
## Output 1.13

## Input // query: COc1ccc([N+](=O)[O-])c(S(=O)(=O)c2ccc(Cl)cc2)n1
## Output 1.01

====

- Tested on: YNL142W
- assay notes: GFP reporter expression in TORC1-bypass yeast, mechanism study for yeast TOR pathway modulator project, S. cerevisiae, TORC1 bypass vs wild-type strains (AID 504479)
- condition notes: fluorescence ratio vs DMSO, MEP2-GFP in TORC1 bypass strain, at 10 µM, stronger effect = higher value
Collected GFP ratio vs DMSO values appear next to each entry.
Reply with the value as a number alone.

Below are worked cases with known answers.
compound | measurement type | meas value
CCSc1nnc(NC(=O)c2ccccn2)s1 | GFP ratio vs DMSO | 1.06
CN1CCN(C(c2ccc(C(F)(F)F)cc2)c2ccc3cccnc3c2O)CC1 (stereo not given) | GFP ratio vs DMSO | 0.978
Clc1ccc(N=c2ssnc2Cl)cc1 | GFP ratio vs DMSO | 1.08
Cn1ncc(S(=O)(=O)Cc2ccccc2)c(Cl)c1=O | GFP ratio vs DMSO | 0.971
O=C(OCn1ncc(Br)c(Br)c1=O)c1c(F)cccc1F | GFP ratio vs DMSO | 0.876
c1ccc(-c2cccc(-c3ccccn3)n2)nc1 | GFP ratio vs DMSO | 1

## Input Reported GFP ratio vs DMSO for CO[C@H]1C[C@@H]2CC[C@@H](C)[C@@](O)(O2)C(=O)C(=O)N2CCCC[C@H]2C(=O)O[C@H]([C@H](C)C[C@@H]2CC[C@@H](O)[C@H](OC)C2)CC(=O)[C@H](C)/C=C(\C)[C@@H](O)[C@@H](OC)C(=O)[C@H](C)C[C@H](C)/C=C/C=C/C=C/1C : what is it?
## Output 1.01

## Input // query: C/C(=N\NC(=O)c1ccc(C(C)(C)C)cc1)c1ccccn1
## Output 0.969

## Input // query: O=C(Oc1c(Cl)cc(Cl)c2cccnc12)c1ccco1
## Output 0.959

## Input // query: O=C(CCc1ccccc1)NNC(=S)NC(=O)c1ccccc1
## Output 1.28

Where do these numbers come from? They come from PubChem BioAssay AID504479.
